Provide the recorded %Inh for the entries that follow.
Test system: PAK3
measurement context: concentration: 1 μM,replicates: in singlicate; n = 1;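 note: KINOMEscan kinase panel screen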
Supply the numeric figure in %, leaving out any unit text.

For record O=C(Nc1n[nH]c2cc(-c3ccco3)ccc12)C1CC1 the listed %Inh is 0

For record N#Cc1cccc(C(=O)NC2CCN(c3ccnc(Nc4ccc(F)cc4)n3)C2)c1 (centres unmarked) the listed %Inh is 0

For record CCn1c(-c2nonc2N)nc2cncc(Br)c21 the listed %Inh is 1

For record Cc1ccn2nc(-c3ccc(F)cc3)c(-c3ccncc3)c2c1.Cl the listed %Inh is 0

For record COC(=O)c1cccc(NC(=O)NC2CCN(c3ccnc(NCc4ccc(F)cc4)n3)CC2)c1 the listed %Inh is 0

For record Cc1n[nH]c2cc(Nc3ccnc(Nc4cccc(CN5CCOCC5)c4)n3)ccc12 the listed %Inh is 0

For record Cc1ccc(CC(=O)N2CCc3cc(-c4cn(C)c5ncnc(N)c45)ccc32)cc1 the listed %Inh is 49

For record C[C@@H]1CCN(C(=O)N2CCCC2)C[C@@H]1N(C)c1ncnc2[nH]ccc12 the listed %Inh is 25

----------
Provide the recorded %Inh for the entries that follow.
Tested on: ACVR2B
measurement context: concentration: 1 μM,replicates: in singlicate; n = 1

For record Cc1n[nH]c2cc(Nc3ccnc(Nc4cccc(CN5CCOCC5)c4)n3)ccc12 [GW682569] the listed %Inh is 39%

For record N#Cc1cccc(C(=O)NC2CCN(c3ccnc(Nc4ccc(F)cc4)n3)C2)c1 (stereo not drawn) [GSK1379708] the listed %Inh is 0%

For record CCNCC(Cc1ccccc1)NC(=O)c1cc(Br)c(-c2ccnc3[nH]ccc23)s1.Cl.Cl (stereo not drawn) [GSK1383280] the listed %Inh is 2%

For record Cn1ccc2ncnc(Oc3ccc(NC(=O)Nc4ccnc(C(F)(F)F)c4)c(Cl)c3)c21 the listed %Inh is 13%

For record CCCC(=O)Nc1n[nH]c2ncccc12 [SB-601436] the listed %Inh is 0%

For record CN1CCN(CCCNc2nccc(-c3c(-c4ccc(F)cc4)nn4cc(C(N)=O)ccc34)n2)CC1 [GW622475] the listed %Inh is 45%

----------
System: PAK4
measurement context: concentration: 1 μM,replicates: in singlicate; n = 1
Provide the recorded %Inh for the entries that follow.
Supply the numeric figure in %, leaving out any unit text.

For record O=c1[nH]cc(-c2ccc(O)cc2)c2sc(-c3ccncc3)cc12 the listed %Inh is 0

For record CCCC(=O)Nc1n[nH]c2ncccc12 the listed %Inh is 0

For record Cc1cccc(-c2nc(Nc3ccncc3)c3sccc3n2)n1 the listed %Inh is 23

For record Cc1ccc(CC(=O)N2CCc3cc(-c4cn(C)c5ncnc(N)c45)ccc32)cc1 the listed %Inh is 0

For record CN(c1cccc(CNc2nc(Nc3ccc4c(c3)CC(=O)N4)ncc2C(F)(F)F)c1)S(C)(=O)=O the listed %Inh is 11

For record C[C@@H]1CNc2c(sc3ccc4nc(-c5ccc(O)cc5)ccc4c23)C(=O)N1 the listed %Inh is 9

For record C[C@@H](Oc1cc(-n2cnc3cc(-c4ccncc4)ccc32)sc1C(N)=O)c1ccccc1Cl the listed %Inh is 0

For record Cc1ccc(C(=O)Nc2ccc(Oc3ccc4nc(NC(=O)C5CC5)cn4c3)c(F)c2)c(=O)n1-c1ccccc1 the listed %Inh is 0

For record Cn1ccc2ncnc(Oc3ccc(NC(=O)Nc4cccc(C(F)(F)F)c4)c(Cl)c3)c21 the listed %Inh is 15

For record COc1ccc(Nc2nccc(N3CCC(NC(=O)c4cccc(C#N)c4)C3)n2)cc1 (stereo not drawn) the listed %Inh is 0

For record CS(=O)(=O)Nc1ccc(-c2ccnc3[nH]ccc23)cc1 the listed %Inh is 0

For record Cc1nnc(-c2ccc3occ(-c4ccc(S(C)=O)cc4)c3n2)o1 (stereo not drawn) the listed %Inh is 0

For record O=C(Nc1n[nH]c2cc(-c3ccco3)ccc12)C1CC1 the listed %Inh is 1

For record C[C@@H](Oc1cc(-n2cnc3ccc(-c4ccncc4)cc32)sc1C(N)=O)c1ccccc1Cl the listed %Inh is 44

For record Cl.c1ccc(Oc2ccc(Nc3ccnc4cc(-c5ccc(CN6CCNCC6)o5)ccc34)cc2)nc1 the listed %Inh is 0
